Quick reference for pIC50 among some compounds
- Test System: SHP2 enzyme (catalytic domain, amino acid sequence 224-528) (Homo sapiens)
- Construct: purchased GenScript
- Sequence (Q06124 224-528): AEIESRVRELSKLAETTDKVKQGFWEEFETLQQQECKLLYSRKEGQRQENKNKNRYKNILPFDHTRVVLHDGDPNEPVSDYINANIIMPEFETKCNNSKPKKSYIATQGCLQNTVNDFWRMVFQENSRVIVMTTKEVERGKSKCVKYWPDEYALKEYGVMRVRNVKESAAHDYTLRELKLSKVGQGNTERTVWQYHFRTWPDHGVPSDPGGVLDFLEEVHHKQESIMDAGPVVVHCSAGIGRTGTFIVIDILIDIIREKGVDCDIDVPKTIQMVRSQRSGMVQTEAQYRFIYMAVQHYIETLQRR
- Protocol Text: SHP2 enzyme inhibition assay (DiFMUP substrate, fluorescence)
- Format: biochemical
- Experimental Parameters: SHP2 catalytic domain, DiFMUP substrate, 30 min pre-incubation; read-out: S HP2 I C50
Lab note — pIC50 values are minus log10 of concentrations in M.

{"columns": ["Compound", "pIC50"],
 "data": [
  ["O=C(Nc1ccc(-c2cc3cc(F)c(-c4nnn[nH]4)cc3n2C2CCC2)cc1)C(=O)Nc1ccc(N2CC3COCC3C2)cc1 (stereo not drawn)", 7.14],
  ["O=C(Nc1ccc(-c2cc3cc(F)c(-c4nnn[nH]4)cc3n2C2CCC2)cc1)C(=O)Nc1ccc(N2CC3(COC3)C2)cc1", 7.19]
]}

Now turn to the next compound.
Entry CC(C)(O)C1CCC2(CC1)CN(c1ccc(NC(=O)C(=O)Nc3ccc(-c4cc5cc(F)c(-c6nnn[nH]6)cc5n4C4(C)CCC4)cc3)cc1)C2 , pIC50 reported as 6.83
